Overview of recorded IC50 for various compounds
Test system: COLO 205 colorectal tumor cells
procedure summary: Tumor cell viability inhibition assay (CellTiter-Glo 2.0, 72 hours)
Type: cell-based
condition description: Homo sapiens, COLO 205, 72 h, COLO 205 cell viability
endpoint name: IC50

compound: Cc1cc(-c2cc(Cl)ccc2OCCn2c(C)nc3c(c2=O)C[C@H](N2CCC4(CCCO4)CC2)CC3)c2scc(C(=O)O)c2n1 (single isomer, unassigned)
endpoint name: IC50
reported result: 5 to 20 µM

compound: Cc1cc(-c2cc(Cl)ccc2OCCn2c(C)nc3c(c2=O)C[C@@H](N2CCCC[C@H]2c2cccc(C(F)(F)F)c2)CC3)c2scc(C(=O)O)c2n1 (single isomer, unassigned)
endpoint name: IC50
reported result: > 20 µM

compound: Cc1cc(-c2cc(Cl)ccc2OCCn2c(C)nc3c(c2=O)C[C@H](N2CCC(c4cncc(S(=O)(=O)NC(C)(C)C)c4)CC2)CC3)c2scc(C(=O)O)c2n1 (single isomer, unassigned)
endpoint name: IC50
reported result: < 5 µM

compound: Cc1cc(-c2cc(Cl)ccc2OCCn2c(C)nc3c(c2=O)C[C@H](N2CC[C@H](F)C2)CC3)c2scc(C(=O)O)c2n1 (single isomer, unassigned)
endpoint name: IC50
reported result: < 5 µM

compound: Cc1cc(-c2cc(Cl)ccc2OCCn2c(C)nc3c(c2=O)C[C@H](N2CCCC[C@H]2C(F)(F)F)CC32CC2)c2scc(C(=O)O)c2n1 (single isomer, unassigned)
endpoint name: IC50
reported result: 5 to 20 µM
